# Procedure Summary: Cytotoxicity against human fibroblast cells at 10 uM after 48 hrs
# Assay type: cell-based
Readout Name: Activity (%)
The reply should contain only the number, in %.

Please review the entries below; each comes with its answer.
C[C@@H]1CC[C@]2(C(=O)O)CC[C@]34C[C@]3(C=C[C@@H]3[C@@]5(C)CC[C@H](O)C(C)(C)[C@@H]5CC[C@]34C)[C@@H]2[C@]1(C)O [EUSCAPHIC ACID A] : 100
C[C@@H]1CC[C@]2(C(=O)O)CC[C@]3(C)C(=CC[C@@H]4[C@@]5(C)C[C@@H](O)[C@@H](O)C(C)(C)[C@@H]5CC[C@]43C)[C@@H]2[C@]1(C)O [EUSCAPHIC ACID] : 95
C[C@@H]1CC[C@]2(C(=O)O)CC[C@]3(C)C(=CC[C@@H]4[C@@]5(C)CC[C@H](O)[C@](C)(CO)[C@@H]5CC[C@]43C)[C@@H]2[C@]1(C)O [ROTUNGENIC ACID] : 99
C[C@@H]1CC[C@]2(C(=O)O)CC[C@]3(C)C(=CC[C@@H]4[C@@]5(C)C[C@H](O)[C@H](O)C(C)(C)[C@@H]5CC[C@]43C)[C@@H]2[C@]1(C)O : 107
C[C@@H]1CC[C@]2(C(=O)O)CC[C@]3(C)C(=CC[C@@H]4[C@@]5(C)CC[C@H](O)C(C)(C)[C@@H]5CC[C@]43C)[C@@H]2[C@]1(C)O [POMOLIC ACID] : 93
C[C@@H]1CC[C@]2(C(=O)O)CC[C@]34C[C@]3(C=C[C@@H]3[C@@]5(C)C[C@@H](O)[C@@H](O)C(C)(C)[C@@H]5CC[C@]34C)[C@@H]2[C@]1(C)O [EUSCAPHIC ACID C] : 119
C[C@@H]1CC[C@]2(C(=O)O)CC[C@]3(C)C(=CC[C@@H]4[C@@]5(C)CC[C@H](O)[C@@](C)(C=O)[C@@H]5CC[C@]43C)[C@@H]2[C@]1(C)O : 99
C=C1[C@H](C)CC[C@]2(C(=O)O)CC[C@]34C[C@]3(C=C[C@@H]3[C@@]5(C)C[C@@H](O)[C@H](O)C(C)(C)[C@@H]5CC[C@]34C)[C@H]12 [EUSCAPHIC ACID F] : 115
C[C@@H]1CC[C@]2(C(=O)O)CC[C@]3(C)C(=CC[C@@H]4[C@@]5(C)CC[C@H](O)[C@@](C)(CO)[C@@H]5CC[C@]43C)[C@@H]2[C@]1(C)O [ROTUNDIC ACID] : 92

// switching to the query compound
Query string: I am curious: what Activity value has been reported for C[C@H]1[C@H](C)CC[C@]2(C(=O)O)CC[C@]3(C)C(=CC[C@@H]4[C@@]5(C)C[C@@H](O)[C@H](O)C(C)(C)[C@@H]5CC[C@]43C)[C@H]12 [COROSOLIC ACID] ?
Result string: 109
